Source listed as patent US20180318473A1.

Listing of entries alongside the reported HPLC retention time (min) Condition 1.
assay: Hydrophobicity by relative elution time from a C18 HPLC column; assay type: physicochemical; settings: acetonitrile / ammonium acetate buffer pH 6.4 with 5 mM TBAP gradient, 0.8 mL/min, column temperature 35° C.
Returns: string containing the number followed by the unit.

Below, 3 compounds whose answers are already recorded.
COMPOUND | EXPERIMENTAL RESULT
CCC1(OC(=O)CN)C(=O)OCc2c1cc1n(c2=O)Cc2cc3cc(OC(=O)CN)ccc3nc2-1 (centres unmarked) [Compound 13] | 6.1 min
CC[C@@]1(O)C(=O)OCc2c1cc1n(c2=O)Cc2cc3cc(O)ccc3nc2-1 [Compound 32] | 6.1 min
CCCC(=O)Oc1ccc2nc3c(cc2c1)Cn1c-3cc2c(c1=O)COC(=O)[C@@]2(CC)OC(=O)CCC [Compound 8] | 21.9 min

Query string: For the compound CCC1(OC(=O)C(C)C)C(=O)OCc2c1cc1n(c2=O)Cc2cc3cc(OC(=O)C(C)C)ccc3nc2-1 (centres unmarked) [Compound 9] , what HPLC retention time (min) Condition 1 is on record?
Result string: 22.0 min

Query string: For the compound CCc1c2c(nc3ccc(O)cc13)-c1cc3c(c(=O)n1C2)COC(=O)[C@]3(O)CC [Compound 6] , what HPLC retention time (min) Condition 1 is on record?
Result string: 7.8 min

Query string: For the compound CCCCCC(=O)Oc1ccc2nc3c(cc2c1)Cn1c-3cc2c(c1=O)COC(=O)[C@@]2(CC)OC(=O)CCCCC [Compound 10, CAMPTOTHECIN 10,20-DI O HEXONATE] , what HPLC retention time (min) Condition 1 is on record?
Result string: 25.3 min

Query string: For the compound CCC1(OC(=O)CNC(=O)OC(C)(C)C)C(=O)OCc2c1cc1n(c2=O)Cc2cc3cc(OC(=O)CNC(=O)OC(C)(C)C)ccc3nc2-1 (centres unmarked) [Compound 11] , what HPLC retention time (min) Condition 1 is on record?
Result string: 20.9 min

Query string: For the compound CCC(=O)Oc1ccc2nc3c(c(CC)c2c1)Cn1c-3cc2c(c1=O)COC(=O)[C@@]2(CC)OC(=O)CC [Compound 15] , what HPLC retention time (min) Condition 1 is on record?
Result string: 20.8 min

###

Assay: Hydrophobicity by relative elution time from a C18 HPLC column
Assay type: physicochemical
Details: acetonitrile/water gradient 50:50 to 90:10, 1 mL/min, column temperature 35° C.
Source text: To increase the penetration and retention of a drug released from a device such as a stent into the vascular wall or wall of other vessel or tissue, several drugs were modified to increase their hydrophobicity. […] […] The longer the elution time, the more hydrophobic the compound.
Listing of entries alongside the reported HPLC retention time (min) Condition 2.
Enter your answer as a number in min; do not include the unit.

Below, 5 molecules whose answers are already recorded.
MOLECULE | HPLC retention time (min) Condition 2
CC(=O)O[C@@]12CO[C@@H]1C[C@H](O)[C@@]1(C)C(=O)[C@H](O)C3=C(C)[C@@H](OC(=O)[C@H](O)[C@@H](NC(=O)OC(C)(C)C)c4ccccc4)C[C@@](O)([C@@H](OC(=O)c4ccccc4)[C@H]21)C3(C)C [Docetaxel, reference compound] | 9.0
CC[C@@]1(O)C(=O)OCc2c1cc1n(c2=O)Cc2cc3cc(O)ccc3nc2-1 [Compound 32] | 1.9
CC(=O)O[C@H]1C(=O)[C@@]2(C)[C@H]([C@H](OC(=O)c3ccccc3)[C@]3(O)C[C@H](OC(=O)[C@H](O)[C@@H](NC(=O)c4ccccc4)c4ccccc4)C(C)=C1C3(C)C)[C@]1(OC(C)=O)CO[C@@H]1C[C@@H]2O [Paclitaxel, reference compound] | 10.5
CCc1c2c(nc3ccc(O)cc13)-c1cc3c(c(=O)n1C2)COC(=O)[C@]3(O)CC [Compound 6] | 2.2
CCCCCCCCCCCCCCCCCC(=O)Oc1ccc2nc3c(c(CC)c2c1)Cn1c-3cc2c(c1=O)COC(=O)[C@@]2(CC)OC(=O)CCCCCCCCCCCCCCCCC [Compound 20] | 30.6

Kindly review the next molecule as well.
Query string: For the molecule C=CCNC1=C2C[C@@H](C)C[C@H](OC)[C@H](O)[C@@H](C)/C=C(\C)[C@H](OC(N)=O)[C@@H](OC)/C=C\C=C(/C)C(=O)NC(=CC1=O)C2=O [Compound 17AAG, 17AAG, reference compound] , what HPLC retention time (min) Condition 2 is on record?
Result string: 14.9

###

test system: MX-1 mammary tumor cells
MEASURED METRIC: IC50 (nM)
Enter your answer as a number in nM; do not include the unit.

Query string: For the compound COC1C=CC=C(C)C(=O)NC2=CC(=O)C(N3CC3C)=C(CC(C)CC(OC)C(O)C(C)C=C(C)C1OC(N)=O)C2=O (stereo not shown) , what IC50 is on record?
Result string: 300

###

target: UniProt P02768; experiment: Binding of compounds to albumin
Listing of entries alongside the reported Kd.
Enter your answer as a number in µM; do not include the unit.

Below, 3 compounds whose answers are already recorded.
COMPOUND | Kd [µM]
CC[C@@]1(O)C(=O)OCc2c1cc1n(c2=O)Cc2cc3cc(O)ccc3nc2-1 | 1200
COc1cc2c(c(OC)c1OC)-c1ccc(SC)c(=O)cc1[C@@H](NC(=O)C1CCCC(C(=O)N[C@H]3CCc4cc(OC)c(OC)c(OC)c4-c4ccc(SC)c(=O)cc43)C1)CC2 (some centres unmarked) | 52
COc1cc2c(c(OC)c1OC)-c1ccc(SC)c(=O)cc1[C@@H](NC(=O)CCCCCCCCC(=O)N[C@H]1CCc3cc(OC)c(OC)c(OC)c3-c3ccc(SC)c(=O)cc31)CC2 | 30

Query string: For the compound `COc1cc2c(c(OC)c1OC)-c1ccc(SC)c(=O)cc1[C@@H](NC(=O)CCNC(=O)N[C@H]1CCc3cc(OC)c(OC)c(OC)c3-c3ccc(SC)c(=O)cc31)CC2` , what Kd is on record?
Result string: 109

Query string: For the compound `COc1cc2c(c(OC)c1OC)-c1ccc(SC)c(=O)cc1[C@@H](NC(=O)c1cncc(C(=O)N[C@H]3CCc4cc(OC)c(OC)c(OC)c4-c4ccc(SC)c(=O)cc43)c1)CC2` , what Kd is on record?
Result string: 28

###

target: albumin (Homo sapiens, UniProt P02768); experiment: Binding of compounds to albumin; details: smaller number indicates greater binding affinity; read-out: Albumin Binding, KD
Sequence (P02768 25-609, species assumed): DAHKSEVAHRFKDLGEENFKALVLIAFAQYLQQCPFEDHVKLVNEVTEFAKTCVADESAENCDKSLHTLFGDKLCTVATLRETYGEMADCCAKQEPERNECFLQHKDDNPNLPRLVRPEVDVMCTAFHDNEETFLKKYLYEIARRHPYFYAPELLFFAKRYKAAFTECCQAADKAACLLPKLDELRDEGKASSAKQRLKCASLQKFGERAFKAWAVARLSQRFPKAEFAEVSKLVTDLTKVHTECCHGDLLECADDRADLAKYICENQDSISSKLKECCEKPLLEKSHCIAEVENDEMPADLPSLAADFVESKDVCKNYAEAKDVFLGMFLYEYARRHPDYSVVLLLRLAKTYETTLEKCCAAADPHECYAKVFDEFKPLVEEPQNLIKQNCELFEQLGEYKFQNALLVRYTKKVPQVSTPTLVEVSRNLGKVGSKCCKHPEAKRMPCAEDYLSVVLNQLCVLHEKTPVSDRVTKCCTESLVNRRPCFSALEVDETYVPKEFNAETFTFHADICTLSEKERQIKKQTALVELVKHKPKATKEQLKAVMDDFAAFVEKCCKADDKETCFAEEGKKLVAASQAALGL
MEASURED METRIC: log10 of Kd (log10 of the value in µM)
Hi team, quick reminder: these entries are log10 of Kd (µM).

Below, 5 compounds whose answers are already recorded.
COMPOUND | MEASURED METRIC | EXPERIMENTAL RESULT
CCc1c2c(nc3ccc(O)cc13)-c1cc3c(c(=O)n1C2)COC(=O)[C@]3(O)CC [Compound 6] | log10 of Kd | 2.68
CC(=O)O[C@@]12CO[C@@H]1C[C@H](O)[C@@]1(C)C(=O)[C@H](O)C3=C(C)[C@@H](OC(=O)[C@H](O)[C@@H](NC(=O)OC(C)(C)C)c4ccccc4)C[C@@](O)([C@@H](OC(=O)c4ccccc4)[C@H]21)C3(C)C [Docetaxel, reference compound] | log10 of Kd | 0.74
CO[C@H]1C[C@@H]2CC[C@@H](C)[C@@](O)(O2)C(=O)C(=O)N2CCCC[C@H]2C(=O)O[C@H]([C@H](C)C[C@@H]2CC[C@@H](O)[C@H](OC)C2)CC(=O)[C@H](C)/C=C(\C)[C@@H](O)[C@@H](OC)C(=O)[C@H](C)C[C@H](C)/C=C/C=C/C=C/1C [Rapamycin, reference compound] | log10 of Kd | 2.01
CC(=O)OC12COC1CC(O)C1(C)C(=O)C(O)C3=C(C)C(OC(=O)C(OC(=O)c4ccccc4)C(NC(=O)OC(C)(C)C)c4ccccc4)CC(O)(C(OC(=O)c4ccccc4)C21)C3(C)C (stereo not drawn) [Compound 2, 2′ BENZOYL DOCETAXEL] | log10 of Kd | 0.94
CC(=O)OC1C(=O)C2(C)C(O)CC3OCC3(OC(C)=O)C2C(OC(=O)c2ccccc2)C2(O)CC(OC(=O)C(OC(=O)c3ccccc3)C(NC(=O)c3ccccc3)c3ccccc3)C(C)=C1C2(C)C (stereo not drawn) [Compound 1] | log10 of Kd | 2.01

Kindly review the next compound as well.
Query string: Which log10 of Kd is reported with albumin (Homo sapiens, UniProt P02768) for this entry: CC(=O)O[C@H]1C(=O)[C@@]2(C)[C@H]([C@H](OC(=O)c3ccccc3)[C@]3(O)C[C@H](OC(=O)[C@H](O)[C@@H](NC(=O)c4ccccc4)c4ccccc4)C(C)=C1C3(C)C)[C@]1(OC(C)=O)CO[C@@H]1C[C@@H]2O [Paclitaxel, reference compound] ?
Result string: 1.60
